biological target: RBP4 (Homo sapiens (Human), UniProt P02753)
property: pIC50
Lab note: report pIC50 as minus log10 of the concentration in molar units, number only.

Look up and state reported pIC50 for "COCCN1CCc2c(C(=O)N3CCC(c4cccc(F)c4C(F)(F)F)CC3)n[nH]c2C1" 8.07

----------
target: RBP4-TTR interaction (Homo sapiens (Human)); assay: TR-FRET (HTRF) assay for retinol-induced RBP4-TTR interaction; conditions: in the presence of 1 μM retinol; read-out: HTRF assay for antagonists of RBP4-TTR interaction: IC50
property: pIC50
Lab note: report pIC50 as minus log10 of the concentration in molar units, number only.

Look up and state reported pIC50 for "COCCN1CCc2c(C(=O)N3CCC(c4cccc(F)c4C(F)(F)F)CC3)n[nH]c2C1" 7.51

These measurements were taken from patent US10072016B2.
